Tested on: MS2 coat protein
Measurement Description: apparent Kd, MS2 coat protein; higher = weaker binding; RNA-MaP array
Condition Context: ligand present: flavin mononucleotide; designed as: ON switch for flavin mononucleotide
Quantity: apparent Kd

For the sequence shown here, GCUGAUCAACCCUAGGAUAUCACCCAUACCACAUGAGGAUCACCCAUGUCGGGUUGCUAUGUGGCUGAGAAGGAGGUGCACUAUAC , give the reported apparent Kd.
8.76 nM

Reported apparent Kd, sequence AACAUGAGGAUCACCCAUGUCACAUACAAGUGGAGUUCUAUGAGAAGGGCGAAACGAAUGAGCACGCAGGAUAUCAGCGAUAAA : ____
11.3 nM

Quick check: apparent Kd of UAAAACGGAUCAGGAUAUGUGAAACUGAGUGCGUGAACACUCGCCUACAUGAGGAUCACCCAUGUACAGAAGGGAACUACUACA ?
13.9 nM

What apparent Kd value was documented for this sequence, CUGUUAAGUAAAGGAUAUCCUCCAACAGCUAGAGGAGAAGGUUACUCCUUAAUCCACAUGAGGAUCACCCAUGUUAGUGUAAGU ?
10.1 nM

Sample GCCGACCUCACAUGAGGAUCACCCAUGUGCCGGAAACUACUGAGAAGGGCUCUAAUUCCAGGCGAGCAGGAUAUCAUAAAAUAG — what was its apparent Kd?
8.78 nM

// returns reported apparent Kd for input CUUGAACCAUCACAUGAGGAUCACCCAUGUAGACUAUAAACUGAGGAUAUCACAGCGAGCAGUCAUGAGAAGGCAGAAUGACGG
13.6 nM

Reported apparent Kd for AAUACACUUGAGAAGGCCCAAACAUGAGGAUCACCCAUGUGACAUGUAAUCGCCGCGAAUGGAAGGGAGGAUAUCAGAAUCCAC : what is it?
17.5 nM

Reference source for all entries: the EternaBench riboswitch data
